Biological target: T1, human CD43, endogenous, on primary cells and cell lines that carry the UMG1 epitope (human, UniProt P16150 20-400, native glycosylation of the cell concerned)
T1 construct: also called UMG1 antigen; the target
T1 sequence: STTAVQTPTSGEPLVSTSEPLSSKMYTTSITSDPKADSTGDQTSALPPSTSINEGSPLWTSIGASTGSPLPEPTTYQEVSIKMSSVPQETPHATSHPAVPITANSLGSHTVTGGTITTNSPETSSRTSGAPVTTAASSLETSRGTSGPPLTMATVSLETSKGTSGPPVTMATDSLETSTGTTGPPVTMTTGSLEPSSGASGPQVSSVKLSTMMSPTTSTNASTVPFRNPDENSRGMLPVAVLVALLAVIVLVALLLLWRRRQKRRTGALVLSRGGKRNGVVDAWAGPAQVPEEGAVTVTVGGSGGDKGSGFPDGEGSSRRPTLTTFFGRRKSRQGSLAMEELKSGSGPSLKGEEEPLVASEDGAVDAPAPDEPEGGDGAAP
Assay: flow cytometry, antibody at 1 ug/ml, FITC mouse anti-human IgG secondary; histogram grid, cell line not labelled (HPB-ALL or H9)
OBSERVATION TYPE: binding result

The examples below pair each entry with its known result.
binder="humanized UMG1 antibody H2-L4 (VH2 + VL4) (antibody, IgG1, V domains shown, The label follows the pattern H3-L4) VH: EVQLVESGGGLVQPGGSLRLSCVASGFTFSSFGMHWVRQAPGKGLEWVSYISSGSGNFYYVDTVKGRFTISRDNAKNSLYLQMNSLRAEDTAVYYCARSTYYHGSRGAMDYWGQGTLVTVSS VL: QVVMTQSPAFLSVTPGEKVTITCSASSSVSSMYWYQLKPDQAPKLLIYDTSKMASGVPIRFSGSGSGTDFTFTVSSVEAEDAATYYCQQWSSYPPITFGGGTKVEIK" result=binds
binder="humanized UMG1 antibody H3-L1 (VH3 + VL1) (antibody, IgG1, V domains shown, The label follows the pattern H3-L4) VH: EVQLVESGGGLVQPGGSLRLSCVASGFTFSSFGMHWVRQAPGKGLEWVAYISSGSGNFYYVDTVKGRFTISRDNAKNSLYLQMNSLRAEDTAVYYCARSTYYHGSRGAMDYWGQGTLVTVSS VL: EIVLTQSPATLSLSPGERATLSCSASSSVSSMYWYQQKPGLAPRLLIYDTSKMASGIPDRFSGSGSGTDFTLTISRLEPEDFAVYYCQQWSSYPPITFGQGTRLEIK" result=binds
binder="humanized UMG1 antibody H4-L2 (VH4 + VL2) (antibody, IgG1, V domains shown, The label follows the pattern H3-L4) VH: QVQLVESGGGVVQPGGSLRLSCVASGFTFSSFGMHWVRQAPGKGLEWVAYISSGSGNFYYVDTVKGRFTISRDNSKNTLYLQMNSLRAEDTAVYYCARSTYYHGSRGAMDYWGQGTLVTVSS VL: EIALTQSPATLSLSPGERATLSCSASSSVSSMYWYQLKPGLAPRLLIYDTSKMASGIPIRFSGSGSGTDFTLTVSRVEPEDFAVYYCQQWSSYPPITFGQGTRLEIK" result=binds
binder="humanized UMG1 antibody H2-L3 (VH2 + VL3) (antibody, IgG1, V domains shown, The label follows the pattern H3-L4) VH: EVQLVESGGGLVQPGGSLRLSCVASGFTFSSFGMHWVRQAPGKGLEWVSYISSGSGNFYYVDTVKGRFTISRDNAKNSLYLQMNSLRAEDTAVYYCARSTYYHGSRGAMDYWGQGTLVTVSS VL: QVVMTQSPAFLSVTPGEKVTITCSASSSVSSMYWYQQKPDQAPKLLIYDTSKMASGVPSRFSGSGSGTDFTFTISSLEAEDAATYYCQQWSSYPPITFGGGTKVEIK" result=binds

Problem: Please indicate binding result recorded for humanized UMG1 antibody H3-L3 (VH3 + VL3) (antibody, IgG1, V domains shown, The label follows the pattern H3-L4) VH: EVQLVESGGGLVQPGGSLRLSCVASGFTFSSFGMHWVRQAPGKGLEWVAYISSGSGNFYYVDTVKGRFTISRDNAKNSLYLQMNSLRAEDTAVYYCARSTYYHGSRGAMDYWGQGTLVTVSS VL: QVVMTQSPAFLSVTPGEKVTITCSASSSVSSMYWYQQKPDQAPKLLIYDTSKMASGVPSRFSGSGSGTDFTFTISSLEAEDAATYYCQQWSSYPPITFGGGTKVEIK
Solution: binds
